Each recorded value in this set is attributed to PubChem BioAssay (NCI).

Assay: NCI Yeast Anticancer Drug Screen. Data for the cln2 rad14 strain (AID 165);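 note: 0% = growth equal to vehicle treated cultures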
Details: S. cerevisiae cln2 rad14 strain, active compounds read high; at 50.0 µM unless noted
About 79,000 compounds went through this panel and 15% of them were active in at least one assay; those are over-represented in the sample as a whole.
Quick list: growth inhibition per entry.
Provide only the numeric value, understood in %.

[[record]]
molecule = "Cc1c2ccccc2nc(CS(C)(=O)=O)[n+]1[O-]"
observed_property = "growth inhibition"
meas_value = -51.6


Enquiry: // lookup growth inhibition for `CC(C)N(C(C)C)S(C)(=O)=O`
Return: -17.8

Enquiry: Can you check `CC1(C)OC(=O)C(=Cc2ccc3c(c2)OCO3)C(=O)O1` next?
Return: 19

Enquiry: Can you check `Cc1cc(C)c(S(=O)(=O)Oc2ccccc2)c(C)c1` next?
Return: 1.7

Enquiry: Can you check CN(C)S(=O)(=O)c1ccccc1C(O)(c1ccccc1)c1ccccc1 (tested in a mixture with another compound) next?
Return: -4.55

Enquiry: Can you check `N=C(N)SCCc1cn2ccccc2n1` next?
Return: 3.65

Enquiry: Can you check `O=c1c2ccccc2c(=O)n2n1-c1cccc(c1)CSSCc1cccc-2c1` next?
Return: -3.45

Enquiry: Can you check `Cc1nc2c(=O)[nH]c(=O)[nH]c2s1` next?
Return: -12

Enquiry: Can you check `NC(=S)Nc1ccc(Br)cc1` next?
Return: 34.8

Enquiry: Can you check C=C1[C@@H](O)C[C@@H]2C[C@@]3(C)[C@H](C(C)(C)C[C@@H]3O)C12O (stereo partly drawn) next?
Return: 5

Enquiry: Can you check `COc1ccc2occ(CCC(=O)O)c2c1` next?
Return: -25.9

Enquiry: Can you check `COc1cc(CNc2ccccc2)ccc1O` next?
Return: -8.1
